# measurement.description: Acute toxicity (oral, 7 days observation)
# Assay type: in vivo
# details: mouse, in vivo, po; read-out: Acute toxicity, 50% lethal dose, LD50 (values with Δ marks)
property.label: LD50 at 168 h (mg/kg)

>>> df
                                   compound  property_label  readout_value
0  CN(C)C(=O)N(C)C(=O)NC1CCCCC1 [compound 29, 1,1,3-Trimethyl-5-cychlohexylbiuret]   LD50 at 168 h           1450

* * *

# System: ddy strain of male mice
# measurement.description: Acute toxicity (oral, 7 days observation)
# Format: in vivo
# details: 500 mg/kg, oral, mice, 7 days
# Method: Next, several tests for determining the pharmacological properties, in that acute toxicity, anti-pyretic activity, analgesic activity and anti-inflammatory activity of the present 1,1,3,5-substituted biuret compounds of the formula (1) were conducted and the test results are shown in Table (2). In the tests, each compounds to be tested was used as a suspension in 0.25% carboxymethylcellulose solution. Methods for testing are explained as follows: […]
property.label: Acute toxicity, death number of mice/number of mice tested

>>> print(df.to_string())
                                   compound  readout_value
0  CN(C)C(=O)N(C)C(=O)Nc1ccc([N+](=O)[O-])cc1 [compound 15, 1,1,3-Trimethyl-5-(4-nitrophenyl)biuret]            2/4
1  CC(=O)c1ccc(NC(=O)N(C)C(=O)N(C)C)cc1 [compound 27, 1,1,3-Trimethyl-5-(4-acetylphenyl)biuret]            0/4
2  COc1cc(NC(=O)N(C)C(=O)N(C)C)cc(OC)c1OC [Compound No. 19]            0/4
3  CN(C)C(=O)N(C)C(=O)Nc1c(F)c(F)cc(F)c1F [compound 4]            0/4

* * *

# Tested on: ddy strain of male mice
# measurement.description: Acute toxicity (oral, 7 days observation)
# Type: in vivo
# details: 2000 mg/kg, oral, mice, 7 days
property.label: Acute toxicity, death number of mice/number of mice tested

                 compound_structure_string  readout_value
 0     CN(C)C(=O)N(C)C(=O)Nc1ccc(N(C)C)cc1            0/4
 1    CN(C)C(=O)N(C)C(=O)Nc1ccc(Cl)c(Cl)c1            3/4
 2          CN(C)C(=O)N(C)C(=O)Nc1ccccc1Cl            0/4
 3  CN(C)C(=O)N(C)C(=O)Nc1cccc(C(F)(F)F)c1            4/4
 4        Cc1ccc(NC(=O)N(C)C(=O)N(C)C)cc1C            1/4
 5          CCCN(C(=O)Nc1ccccc1)C(=O)N(C)C            0/4
 6        CSc1ccc(NC(=O)N(C)C(=O)N(C)C)cc1            4/4
 7           CCN(C(=O)Nc1ccccc1)C(=O)N(C)C            3/4
 8      CN(C)C(=O)N(C)C(=O)Nc1ccc(Cl)cc1Cl            3/4
 9        Cc1cccc(NC(=O)N(C)C(=O)N(C)C)c1C            4/4
10         Cc1ccc(NC(=O)N(C)C(=O)N(C)C)cc1            0/4
11          COc1ccccc1NC(=O)N(C)C(=O)N(C)C            2/4
12           CN(C)C(=O)N(C)C(=O)Nc1ccccc1F            4/4
13         CCCCN(C)C(=O)N(C)C(=O)Nc1ccccc1            3/4
14         CCCCN(C(=O)Nc1ccccc1)C(=O)N(C)C            3/4
15       Cc1c(Cl)cccc1NC(=O)N(C)C(=O)N(C)C            4/4
16         Cc1cccc(NC(=O)N(C)C(=O)N(C)C)c1            2/4
17          CCCN(C)C(=O)N(C)C(=O)Nc1ccccc1            4/4
18      COc1ccc(NC(=O)N(C)C(=O)N(C)C)cc1OC            4/4
